Tested on: 598228-144-R-J1-PDC complex spheroid viability;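 further: spheroids exposed to the agents for one week before reading; percent of vehicle DMSO control viability so 100% = untreated growth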
Experiment: Anticancer human tumor 598228-144-R-J1-PDC patient-derived serous endometrial adenocarcinoma cell line growth inhibition [GQUAD]
Settings: second compound 0.0316 µM; first compound 0.00316 µM; active compounds read low
Note to self: use 1 only for viability, T/C readings below 90%; a reading exactly at 90% still gets -1.

Worked set:
Request: Is it true that viability, T/C reported for CC[C@@]1(O)C(=O)OCc2c1cc1n(c2=O)Cc2cc3c(CN(C)C)c(O)ccc3nc2-1 + CN(C)c1ccc(Nc2c3ccc(NC(=O)CCN4CCCC4)cc3nc3cc(NC(=O)CCN4CCCC4)ccc23)cc1 is less than 90%?
Response: 1

Request: Is it true that viability, T/C reported for Cc1[nH]c2ccccc2c1CCNCc1ccc(/C=C/C(=O)NO)cc1 + Cc1[nH]c2ccc(F)cc2c1-c1nc2c3cccnc3c3ncccc3c2[nH]1 is less than 90%?
Response: -1

Request: Is it true that viability, T/C reported for CCc1c2c(nc3ccc(O)cc13)-c1cc3c(c(=O)n1C2)COC(=O)[C@]3(O)CC + Cc1cnc(CNC(=O)c2c(=O)c3ccc(N4CCCN(C)CC4)nc3n3c2sc2ccccc23)cn1 is less than 90%?
Response: 1

Request: Is it true that viability, T/C reported for CC[C@@]1(O)C(=O)OCc2c1cc1n(c2=O)Cc2cc3c(CN(C)C)c(O)ccc3nc2-1 + Cc1[nH]c2ccc(F)cc2c1-c1nc2c3cccnc3c3ncccc3c2[nH]1 is less than 90%?
Response: -1

Request: Is it true that viability, T/C reported for CCc1c2c(nc3ccc(O)cc13)-c1cc3c(c(=O)n1C2)COC(=O)[C@]3(O)CC + CN(C)c1ccc(Nc2c3ccc(NC(=O)CCN4CCCC4)cc3nc3cc(NC(=O)CCN4CCCC4)ccc23)cc1 is less than 90%?
Response: 1

Now turn to the next compound.
Request: Is it true that viability, T/C reported for Cn1ncnc1[C@H]1c2n[nH]c(=O)c3cc(F)cc(c23)N[C@@H]1c1ccc(F)cc1 + Cc1cnc(CNC(=O)c2c(=O)c3ccc(N4CCCN(C)CC4)nc3n3c2sc2ccccc23)cn1 is less than 90%?
Response: -1
